- SUBJECT OF TEST: GABA/benzodiazepine receptor-chloride ionopore complex (GBR complex)
- ASSAY COMMENT: modulation (inhibition) of [35S]TBPS binding
- Design: species or system rat (male Sprague-Dawley)
- MEASUREMENT PARAMETERS: read-out: +5 μM GABA IC50; inhibition of 2 nM [35S]TBPS binding, rat cerebral cortex, +5 μM GABA
So I've got a bunch of compounds here, and I need their IC50 values.

Solved entries:
{"columns": ["COMPOUND", "QUANTITY", "REPORTED VALUE"],
 "data": [
  ["CC(=O)[C@H]1CC[C@H]2[C@@H]3CC=C4C[C@@H](O)CC[C@]4(C)[C@H]3CC[C@]12C [5-PREGNAN-3β-OL- 20-ONE (PREGNENOLONE), 5-PREGNAN-3β-OL- 20-ONE]", "IC50", "> 100 µM"],
  ["CC(O)[C@H]1CC[C@H]2[C@@H]3CC[C@H]4C[C@H](O)CC[C@]4(C)[C@H]3CC[C@]12C (stereo partly drawn) [5α-PREGNAN-3α,20- DIOL ([…]), 5α-PREGNAN-3α,20- DIOL]", "IC50", "0.082 µM"]
]}

Record IC50 per entry; entries follow.
1. CC(=O)[C@H]1CC[C@H]2[C@@H]3CC[C@H]4C[C@@H](O)CC[C@]4(C)[C@H]3CC[C@]12C [5α-PREGNAN-3β-OL- 20-ONE]
2. C[C@]12C[C@H](O)[C@H]3[C@@H](CCC4=CC(=O)CC[C@@]43C)[C@@H]1CC[C@@H]2C(=O)CO [4-PREGNEN-11β,21- DIOL-3,20-DIONE]

> 100 µM
> 100 µM

----------
- System: GABA/benzodiazepine receptor-chloride ionopore complex (GBR complex)
- ASSAY COMMENT: modulation (inhibition) of [35S]TBPS binding
- Design: species or system rat (male Sprague-Dawley); unit not given here
- MEASUREMENT PARAMETERS: [35S]TBPS binding, rat cerebral cortex
QUANTITY: MAXIMAL INHIBITION

Past entries and their recorded results:
{"columns": ["MOLECULE", "MAXIMAL INHIBITION"],
 "data": [
  ["CC(=O)[C@H]1CC[C@H]2[C@@H]3CC=C4C[C@@H](O)CC[C@]4(C)[C@H]3CC[C@]12C", 30],
  ["CC(=O)[C@H]1CC[C@H]2[C@@H]3CCC4=CC(=O)CC[C@]4(C)[C@H]3CC[C@]12C", 100],
  ["C[C@]12CC[C@@H](O)C[C@@H]1CC[C@@H]1[C@@H]2CC[C@]2(C)[C@@H](O)CC[C@@H]12", 100],
  ["C[C@]12C[C@H](O)[C@H]3[C@@H](CCC4=CC(=O)CC[C@@]43C)[C@@H]1CC[C@@H]2C(=O)CO", 21]
]}

Could you tell me MAXIMAL INHIBITION for each of these molecules? They are listed below.
1. C[C@]12CC[C@@H]3c4ccc(O)cc4CC[C@H]3[C@@H]1CC[C@@H]2O
2. CC(O)[C@H]1CC[C@H]2[C@@H]3CC[C@H]4C[C@H](O)CC[C@]4(C)[C@H]3CC[C@]12C (stereo partly drawn) [5α-PREGNAN-3α,20- DIOL ([…]), 5α-PREGNAN-3α,20- DIOL]

0
52

----------
- ASSAY COMMENT: acute LD50
- MEASUREMENT PARAMETERS: mouse, in vivo
QUANTITY: LD50

CC(=O)[C@H]1CC[C@H]2[C@@H]3CC[C@H]4C[C@H](O)CC[C@]4(C)[C@H]3CC[C@]12C [3α-hydroxy-5α-pregnan-20-one] has a reported LD50 of > 500 mg/kg

----------
- System: GABA/benzodiazepine receptor-chloride ionopore complex (GBR complex)
- ASSAY COMMENT: modulation (inhibition) of [35S]TBPS binding
- Set-up: species or system rat (male Sprague-Dawley); unit not given here
- MEASUREMENT PARAMETERS: [35S]TBPS binding, rat cerebral cortex
QUANTITY: MAXIMAL INHIBITION
One number for each entry.

Observe how each entry below is paired with its result.
{"columns": ["MOLECULE", "MAXIMAL INHIBITION"],
 "data": [
  ["CC(=O)[C@H]1CC[C@H]2[C@@H]3CC[C@H]4C[C@@H](O)CC[C@]4(C)[C@H]3CC[C@]12C [5α-PREGNAN-3β-OL- 20-ONE]", 33],
  ["CC(C)CCC[C@@H](C)[C@H]1CC[C@H]2[C@@H]3CC=C4C[C@@H](O)CC[C@]4(C)[C@H]3CC[C@]12C [CHOLESTEROL]", 0]
]}

MAXIMAL INHIBITION reading for C[C@]12CCC(=O)C[C@@H]1CC[C@@H]1[C@@H]2CC[C@]2(C)[C@@H](O)CC[C@@H]12 [5α-ANDROSTAN-17β- OL-3-ONE] : 52

----------
Exercise: state measured IC50 for each of the compounds provided.
- SUBJECT OF TEST: GABA/benzodiazepine receptor-chloride ionopore complex (GBR complex)
- ASSAY COMMENT: modulation (inhibition) of [35S]TBPS binding
- Parameters: species or system rat (male Sprague-Dawley)
- MEASUREMENT PARAMETERS: inhibition of 2 nM [35S]TBPS binding, rat cerebral cortex, no added GABA (control); read-out: CONTROL IC50

{"columns": ["COMPOUND", "IC50"],
 "data": [
  ["C[C@]12CC[C@@H](O)C[C@@H]1CC[C@H]1[C@@H]3CC[C@H](C(=O)CO)[C@@]3(C)CC(=O)[C@@H]12 [5α-PREGNAN-3α-21- DIOL-11,20-DIONE]", "> 100 µM"],
  ["CC(O)[C@H]1CC[C@H]2[C@@H]3CC[C@H]4C[C@H](O)CC[C@]4(C)[C@H]3CC[C@]12C (stereo partly drawn) [5α-PREGNAN-3α,20- DIOL ([…]), 5α-PREGNAN-3α,20- DIOL]", "0.359 µM"]
]}

Batch: IC50 for all items listed.
1. CC(=O)[C@H]1CC[C@H]2[C@@H]3CCC4=CC(=O)CC[C@]4(C)[C@H]3CC[C@]12C [PROGESTERONE]
2. C[C@]12CCC(=O)C[C@@H]1CC[C@@H]1[C@@H]2CC[C@]2(C)[C@@H](O)CC[C@@H]12 [5α-ANDROSTAN-17β- OL-3-ONE]

["> 100 µM", "> 100 µM"]
